We begin with a simple list: items and their reported Activity.
Tested on: Pyricularia oryzae
Test: Fungicidal activity against Magnaporthe oryzae assessed as rice blast disease control at 31.3 ppm foliar application for 24 hr after inoculation by curative manner
Format: functional
Write the number in % without appending the unit.

The molecule listed as CNC(=O)/C(=N\OC)c1ccccc1COc1cccc(C(F)(F)F)n1 shows Activity equal to 90

Given item CNC(=O)/C(=N/OC)c1ccccc1COc1ncc(Cl)cc1Cl , the value recorded as its Activity is 90

---

Tested on: Pseudoperonospora cubensis
Assay: Fungicidal activity against Pseudoperonospora cubensis assessed as cucumber downy mildew disease control at 125 ppm foliar application 24 hr after inoculation by curative manner
Format: functional
resultType: Activity (%)
State just the number; it will be interpreted in %.

>  <smilesCode>
CNC(=O)/C(=N/OC)c1ccccc1COc1cc(C(F)(F)F)nc(C(F)(F)F)c1

>  <unitInfo>
%

>  <Activity>
90

$$$$
>  <smilesCode>
CNC(=O)/C(=N/OC)c1ccccc1COc1cccnc1Cl

>  <unitInfo>
%

>  <Activity>
90

$$$$

Proceed to the following item.
The molecule identified as CNC(=O)/C(=N/OC)c1ccccc1COc1nc(Cl)c(Cl)c(C(F)(F)F)c1Cl registered its Activity at 90
